Field: melting point. Provide a value for each of the compounds that follow.

Observe how each entry below is paired with its result.
COc1ccnc(CCc2nc3cc(-c4ccc(S(=O)(=O)N5CCCN(C)CC5)cc4)cnc3[nH]2)c1 [Compound 11] ... 160 to 162 °C
COc1ccnc(CCc2nc3cc(-c4ccc(S(=O)(=O)NCCO)cc4)cnc3[nH]2)c1 [Compound 17] ... 218 to 220 °C
COCCN1CCN(S(=O)(=O)c2ccc(-c3cnc4[nH]c(CCc5cc(OC)ccn5)nc4c3)cc2)CC1 [Compound 8] ... 206 to 208 °C

**Q:** For the compound COc1ccnc(CCc2nc3cc(-c4ccc(S(=O)(=O)NCc5ccccc5)cc4)cnc3[nH]2)c1 [Compound 19] , give its measured melting point value.
**A:** 211 to 212 °C
